B1: PTPRD (parent)
chain: FICQATGDPRPKIVWNKKGKKVSN

Variants of: B1
TEST SUMMARY: protein stability index of a GFP-peptide fusion (GPS, HEK-293T) (PSI 1-6); higher = more stable;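 note: lentivirally expressed fusions sorted by FACS into six bins by GFP to DsRed ratio, PSI derived from sequencing read proportions per bin multiplied by bin number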
TEST CONTEXT: c terminus: a fixed tail appended
// reported protein stability index per item
Kindly provide the number alone.

MUTANT ID | protein stability index
K20R | 2.39
K21T | 2.45
I2W | 2.95
K20W | 1.76
K21P | 2.18

Fill blank: measured protein stability index of the variant W15F is ____.
2.5

Okay, and N24C ?
2.23

Okay, and K17G ?
1.77

Okay, and V22L ?
2.36

Okay, and N16Y ?
1.89

Okay, and K20M ?
1.8
